The measurements presented in this section are drawn from PubChem BioAssay (NCI).

test system: SK-MEL-5 melanoma; assay: NCI tumour cell line growth inhibition, 48 h
ENDPOINT: TGI

Some entries whose results are on file:
N#Cc1nc2cc(Cl)c(Cl)cc2nc1-c1ccc(Cl)cc1    > 100 µM
COc1cccc(C2CC(C)(O)Oc3cc4c(cc32)OCO4)c1 (stereo unspecified)    > 100 µM
COc1ccc(CC(C)NCC(O)c2ccc(O)c(NC=O)c2)cc1 (stereo unspecified)    > 100 µM

Item `O=c1c(-c2cccc3ccccc23)c(-c2cccc3ccccc23)c1=O` has what recorded TGI?
40 µM

Item `Nc1nc(N)c2cc(-c3cc4ccccc4[nH]3)ccc2n1` has what recorded TGI?
30.2 µM

Item CC(C)CC(NC(=O)C(O)C(N)Cc1ccccc1)C(=O)O (stereo unspecified) has what recorded TGI?
> 100 µM
